Molecular target: human GCGR (full-length glucagon receptor of 477 amino acids) (human, UniProt P47871 26-477)
Sequence (P47871 26-477 limits assumed): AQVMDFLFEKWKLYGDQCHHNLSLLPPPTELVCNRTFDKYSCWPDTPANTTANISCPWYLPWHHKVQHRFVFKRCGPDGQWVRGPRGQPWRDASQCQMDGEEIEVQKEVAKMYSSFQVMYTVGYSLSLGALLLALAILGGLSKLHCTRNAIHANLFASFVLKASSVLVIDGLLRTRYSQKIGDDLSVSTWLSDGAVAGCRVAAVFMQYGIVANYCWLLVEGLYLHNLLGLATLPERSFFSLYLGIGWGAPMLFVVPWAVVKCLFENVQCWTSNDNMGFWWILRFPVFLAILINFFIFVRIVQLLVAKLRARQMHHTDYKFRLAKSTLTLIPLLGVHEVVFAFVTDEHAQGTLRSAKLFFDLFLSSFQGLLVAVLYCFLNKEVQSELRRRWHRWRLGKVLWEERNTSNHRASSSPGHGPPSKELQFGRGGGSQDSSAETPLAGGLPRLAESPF
Assay: cell-based or functional assay
reported-property: Imax (%)
A number alone suffices; assume %.

binder: ch1808 (antibody, human IgG4 S228P, kappa, F234A L235A, V domains shown, IgG4-AA / kappa chimeric antibody) VH: QVQLQQSGAELARPGASVKLSCKASGDTFTTNGISWVKQRIGQGLEWIGEIYPRSGNTYYNENFKGKATLTADKSSTTAYMELRRLTSEDSAVYFCARSITSVIGADYFDYWGQGTTLTVSS VL: DIQMTQTTSSLSASLGDRVTISCRASQDISNYLNWYQKKPDGTVKLLIYYSSTLHSGVPSRFSGSGSGTDYSLTISNLEQEDIATYFCQQGNTFPWTFGGGTKLEIKR
value-units: %
Imax: 98
--
binder: ch1805 (antibody, human IgG4 S228P, kappa, F234A L235A, V domains shown, IgG4-AA / kappa chimeric antibody; also called chimeric antibody of clone 1805) VH: EVQLQQSGPELVKPGASVKIPCKTSGYTFTDYNMDWVKQSHGRSLEWIGSIDPDNGGTIYNQKFKGKATLTVDKSSSTAYMELRSLTSEDTAVYYCTRDYYGSSSWFAYWGQGTLVTVSA VL: DVVMTQSPATLSVTPGDRVSLSCRASQSISDYLHWYQQKSHESPRLLIKYASQSISGIPSRFSGSGSGSDFTLSINSVEPEDVGVYYCQNGHSFPYTFGGGTKLEIKR
value-units: %
Imax: 91
--
binder: ch1822 (antibody, human IgG4 S228P, kappa, F234A L235A, V domains shown, IgG4-AA / kappa chimeric antibody) VH: EVRLVESGGDFVQPGRSVKLSCAASGFTFSNYYMAWVRQAPTKGLEWVGSISTGGVNTYYRDSVKGRFTISRDNAESTLYLQMDSLRSEETATYYCARHTTPDYHYGIYFAMDAWGQGTSVTVSS VL: QVTLTQPKSVSGSLRSTITIPCERSSGDIGESYVNWYQQHLGRPPINVIYADDQRPSEVSDRFSGSIDSSSNSASLTITNLQVDDEADYFCQSYDSSIDIFFGGGTKLTVLR
value-units: %
Imax: 59

Moving on to the next binder.
# input Which Imax reading was recorded for the binder ch1810 (antibody, human IgG4 S228P, kappa, F234A L235A, V domains shown) VH: QVQLQQSGTELARPGTSVTLSCKASGYTFTNYAISWVKQRTGQGLEWIGEIYPTSGNTYYNEKFKGKATLTADRSSKTMYMELRSLTSVDSAVYFCASGVITTVVSTDYFDYWGQGSPLTVSS VL: DIQMTQIPSSLSVSLGDRVTISCRASLDISNYLNWYQLKPDGTVKLLIYYTSTLHSGVSSRFSGSGSGTEYSLTISNLEQEDIATYFCQQGNMVPYTFGGGTKLEIKR ?
# output 100
